- Measurement Description: physchem
- Type: physicochemical
- Assay Context: aqueous solution, pH 7
Assay Endpoint: remaining at 21 h, 70 µM (%)
Write the value in % as a bare number.

Form field: reported remaining at 21 h, 70 µM of `O=C1O[C@H]([C@H](CO)O[C@H]2O[C@H](CO)[C@@H](O)[C@H](O)[C@H]2O)C(O)=C1O`
6

Query: remaining at 21 h, 70 µM; subject: `O=C1O[C@H]([C@@H](O)CO)C(O)=C1O`
2

---

- Measurement Description: physchem
- Assay type: physicochemical
- Assay Context: aqueous solution, pH 7
Assay Endpoint: remaining at 0.5 h, 70 µM

Which remaining at 0.5 h, 70 µM value is on record for `O=C1O[C@H]([C@H](CO)O[C@H]2O[C@H](CO)[C@@H](O)[C@H](O)[C@H]2O)C(O)=C1O` ?
35%

I am curious: what remaining at 0.5 h, 70 µM value has been reported for `O=C1O[C@H]([C@@H](O)CO)C(O)=C1O` ?
20%
